- test: Single-dose pharmacokinetics of Compound B, fasted and fed cohorts
- Assay type: in vivo, human
- test-context: human, plasma, oral, 0.3 mg, single dose 0.3 mg, Cohort 1, fasted, plasma; read-out: Cmax Mean (% CV)
test-readout: Cmax (ng/mL)
Lab book: enter the figure in ng/mL, no units written.

In plain terms, CCCCOc1nc(N)c2c(n1)N(Cc1cccc(CN3CCCC3)c1)CC(=O)N2 has a documented Cmax of 0.184

###

- test: Single-dose pharmacokinetics of Compound B, fasted and fed cohorts
- Assay type: in vivo, human
- test-context: human, plasma, oral, 4 mg, single dose 4 mg, Cohort 4, fasted; read-out: AUCinf Mean (% CV)
test-readout: AUC(0-inf) (ng·h/mL)
Lab book: enter the figure in ng·h/mL, no units written.

In plain terms, CCCCOc1nc(N)c2c(n1)N(Cc1cccc(CN3CCCC3)c1)CC(=O)N2 has a documented AUC(0-inf) of 57.2

The origin of these recorded values is patent US20130157973A1.
